Biological target: T1, Mouse latent myostatin (mouse, UniProt O08689 26-267; O08689 268-376)
T1 construct: Latent form = complex of two propeptides and the mature dimer
T1 sequence 1: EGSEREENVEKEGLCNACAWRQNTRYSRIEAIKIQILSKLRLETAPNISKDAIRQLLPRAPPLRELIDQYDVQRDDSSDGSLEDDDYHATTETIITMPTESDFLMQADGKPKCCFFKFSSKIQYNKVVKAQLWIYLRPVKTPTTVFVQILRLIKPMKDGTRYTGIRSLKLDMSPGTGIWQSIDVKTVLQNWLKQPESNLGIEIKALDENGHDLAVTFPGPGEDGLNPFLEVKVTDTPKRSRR
T1 sequence 2: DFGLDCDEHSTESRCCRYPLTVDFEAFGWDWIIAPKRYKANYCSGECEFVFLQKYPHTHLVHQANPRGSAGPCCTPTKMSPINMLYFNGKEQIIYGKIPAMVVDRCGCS
Experiment: SPR (BIACORE T200) 37C, pH 5.8, antibody captured by ProA/G
EXPERIMENTAL_ENDPOINT: Kd (µM)
Could you give me the number in µM? Just the number is fine.

// solved cases for Kd follow
- MS_M103205H1046-SG1/M103202L889-SK1 (antibody, human IgG1, kappa, V domains shown, also called MS1032LO10-SG1) VH: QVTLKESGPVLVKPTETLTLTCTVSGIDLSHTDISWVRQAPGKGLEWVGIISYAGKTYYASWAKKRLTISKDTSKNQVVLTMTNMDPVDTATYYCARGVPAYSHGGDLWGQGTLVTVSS VL: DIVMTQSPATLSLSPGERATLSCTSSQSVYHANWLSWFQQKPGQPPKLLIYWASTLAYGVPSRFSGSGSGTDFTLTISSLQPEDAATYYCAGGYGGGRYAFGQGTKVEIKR: 0.0109
- MS_M103205H1057-SG1/M103202L889-SK1 (antibody, human IgG1, kappa, V domains shown, also called MS1032LO12-SG1) VH: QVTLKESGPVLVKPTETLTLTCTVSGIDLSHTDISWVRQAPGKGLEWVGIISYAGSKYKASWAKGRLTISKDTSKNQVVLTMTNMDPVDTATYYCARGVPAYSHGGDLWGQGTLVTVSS VL: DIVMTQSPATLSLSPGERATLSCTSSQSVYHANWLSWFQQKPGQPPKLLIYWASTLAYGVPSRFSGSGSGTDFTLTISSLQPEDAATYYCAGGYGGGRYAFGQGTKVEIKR: 0.0248
- MS_M103205H1047-SG1/M103202L889-SK1 (antibody, human IgG1, kappa, V domains shown, also called MS1032LO11-SG1) VH: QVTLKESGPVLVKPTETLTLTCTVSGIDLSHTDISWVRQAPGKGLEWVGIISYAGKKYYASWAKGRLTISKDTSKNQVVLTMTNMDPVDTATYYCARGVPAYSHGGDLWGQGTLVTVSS VL: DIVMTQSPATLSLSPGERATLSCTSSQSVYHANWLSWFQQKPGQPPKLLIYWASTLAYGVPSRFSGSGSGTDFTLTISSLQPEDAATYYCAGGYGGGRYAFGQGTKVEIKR: 0.0292
- MS_M103240H1246-SG1/M103202L1045-SK1 (antibody, human IgG1, kappa, V domains shown, also called MS1032LO25-SG1) VH: QVQLVESGGGLVQPGGSLRLSCAVSGIDLSHEDISWVRQAPGKGLEWVSIISYAGSKYYASWAKGRLTISKDTSKNQVVLTMTNMDPVDTATYYCARGVPAYSHGGDLWGQGTLVTVSS VL: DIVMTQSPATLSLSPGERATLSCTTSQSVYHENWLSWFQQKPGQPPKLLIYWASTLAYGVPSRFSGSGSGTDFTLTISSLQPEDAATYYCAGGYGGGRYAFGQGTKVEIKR: 0.00988
- MS_M103245H1233-SG1/M103202L1045-SK1 (antibody, human IgG1, kappa, V domains shown, also called MS1032LO23-SG1) VH: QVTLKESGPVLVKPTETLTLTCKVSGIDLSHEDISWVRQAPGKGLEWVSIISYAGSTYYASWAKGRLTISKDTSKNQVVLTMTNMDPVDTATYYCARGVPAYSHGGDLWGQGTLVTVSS VL: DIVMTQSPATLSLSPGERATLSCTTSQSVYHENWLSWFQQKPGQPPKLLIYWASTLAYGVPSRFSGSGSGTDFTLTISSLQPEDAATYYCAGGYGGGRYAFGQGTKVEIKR: 0.0064

Could you tell me which Kd is on file for MS_M103205H1004-SG1/M103202L889-SK1 (antibody, human IgG1, kappa, V domains shown, also called MS1032LO07-SG1) VH: QVTLKESGPVLVKPTETLTLTCTVSGIDLSHDDISWVRQAPGKGLEWVGIISYAGSMYYASWAKGRLTISKDTSKNQVVLTMTNMDPVDTATYYCARGVPAYSHGGDKWGQGTLVTVSS VL: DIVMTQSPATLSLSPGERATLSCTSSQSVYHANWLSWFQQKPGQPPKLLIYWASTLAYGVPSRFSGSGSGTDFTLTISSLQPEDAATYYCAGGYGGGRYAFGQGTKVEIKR ?
0.0308

Record: MS_M103205H1795-SG1/M103202L1060-SK1 (antibody, human IgG1, kappa, V domains shown, also called MS1032LO24-SG1) VH: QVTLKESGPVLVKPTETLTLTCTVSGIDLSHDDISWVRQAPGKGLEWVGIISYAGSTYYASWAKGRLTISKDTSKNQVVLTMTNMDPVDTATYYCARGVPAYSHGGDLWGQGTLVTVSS VL: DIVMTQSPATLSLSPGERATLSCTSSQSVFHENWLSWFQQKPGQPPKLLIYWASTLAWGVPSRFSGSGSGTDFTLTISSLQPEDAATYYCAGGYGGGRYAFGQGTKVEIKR
0.00102
